B1: SAM and SH3 domain-containing protein 1, residues 630 to 700; numbered along this chain, O94885 (parent)
chain: GRPPQPKSVEDLLDRINLKEHMPTFLFNGYEDLDTFKLLEEEDLDELNIRDPEHRAVLLTAVELLQEYDSN

Variants of: B1
assay_protocol: abundance fitness (aPCA) (normalised: wild type 0, dead -1); higher = more abundant; growth selection in yeast, the domain comes from the species named
assay_context: Homo sapiens
Threshold check on abundance fitness: at or above -0.5 gives Y, strictly below gives N.

Check out these entries, answers already filled in.
mut=D11S group_label=N
mut=S8T group_label=Y
mut=D45H group_label=N

Please tell me: is the variant "T35E" at or over -0.5 in terms of abundance fitness?
Y

Please tell me: is the variant "Y68D" at or over -0.5 in terms of abundance fitness?
Y

Please tell me: is the variant "P6S" at or over -0.5 in terms of abundance fitness?
N
